conditions: in acetonitrile, 298.15 K
quantity kind: solubility (mole fraction)

Sample `CC1(C)CCC2=C(O1)c1ccccc1C(=O)C2=O` ; solubility (mole fraction) observed: 0.018

====

conditions: in acetone, 318.15 K
quantity kind: solubility (mole fraction)
Answers are plain numbers.

Entry under test: `CC1(C)CCC2=C(O1)c1ccccc1C(=O)C2=O` . Its solubility (mole fraction) was 0.0342

====

details: in n-butanol, 318.15 K
quantity kind: solubility (mole fraction)
Give bare numbers.

Value of measured solubility (mole fraction) for the entry `CC1(C)CCC2=C(O1)c1ccccc1C(=O)C2=O` : 0.0203

====

details: in isopropanol, 318.15 K
quantity kind: solubility (mole fraction)
Numbers only.

For reference, reported solubility (mole fraction) for `CC1(C)CCC2=C(O1)c1ccccc1C(=O)C2=O` stands at 0.0111
